# MEASURED ON: MBL (Homo sapiens)
# Construct: 3 hr of reoxygenation in the presence of 30% human serum (HS); 2% human sera on mannan-coated plates)
# Sequence (P11226 21-248): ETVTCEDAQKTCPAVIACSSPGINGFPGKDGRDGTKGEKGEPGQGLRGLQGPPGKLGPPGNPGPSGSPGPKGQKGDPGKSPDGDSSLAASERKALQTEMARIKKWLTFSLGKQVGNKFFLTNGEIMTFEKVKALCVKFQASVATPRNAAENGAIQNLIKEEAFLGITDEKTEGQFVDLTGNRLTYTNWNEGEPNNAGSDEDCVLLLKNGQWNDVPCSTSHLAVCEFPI
# TEST DETAILS: Functional screen: C3 deposition on mannan-coated plates in 2% human sera
pEC50: −log10 of the molar value.
REPORTED PROPERTY: pEC50

input: What pEC50 value was documented for this compound, CC(=O)N[C@H]1C(O)O[C@H](CO)[C@@H](O)[C@@H]1O (stereo partly shown) ?
output: ~9.00

All values here come from patent US7273925B1.
